Source: patent US7910579B2

assayProtocol: Evaluation of Brain-Penetration and Bone-Seeking Properties of the Labeled Compound in Mouse
Assay type: in vivo
particulars: male ICR mouse, intravenous, 30 min, thighbone
Provide the reported bone radioactivity of each item.

Here's what some known entries look like.
Exercise: What does the record list as bone radioactivity for OCC(CF)Oc1ccc2nc(/C=C/c3cnc(N4CCOCC4)s3)oc2c1 (stereo not shown) [[^18F]THK-702] ?
Key: 0.92 % ID/g

Exercise: What does the record list as bone radioactivity for CN(C)c1ncc(C=Cc2nc3ccc(OCCF)cc3o2)s1 [[^18F]BF-227, reference compound] ?
Key: 4.38 % ID/g

Exercise: What does the record list as bone radioactivity for CN(C)c1ncc(/C=C/c2nc3ccc(OC(CO)CF)cc3o2)s1 (stereo not shown) [[^18F]THK-763] ?
Key: 0.88 % ID/g

Further cases:
Exercise: What does the record list as bone radioactivity for CNc1ncc(/C=C/c2nc3ccc(OC(CO)CF)cc3o2)s1 (stereo not shown) [[^18F]THK-761] ?
Key: 0.88 % ID/g

###

targetOrTestSystem: Amyloid β protein 1-40 (Homo sapiens, UniProt P05067)
Construct: Amyloid β protein 1-40 (bought from Peptide Laboratory); purchased Peptide Laboratory
Sequence (P05067 672-711): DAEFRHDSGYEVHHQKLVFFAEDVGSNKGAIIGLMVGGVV
assayProtocol: Fluorescence Congo Red Method
Format: binding
particulars: 1 h; compound 10 μM, amyloid β protein 5 μM, Congo red 0.1 μM; read-out: Binding Percentage of Compound in the presence of 0.1 μM CR
Protocol: Next described is a screening method for the compounds of the invention. Some of the compounds of the invention could not be screened according to a Thioflavin T method, since their fluorescence wavelength overlaps with that of Thioflavin T. For such compounds, the following novel screening method was introduced. (1) Amyloid β protein 1-40 (bought from Peptide Laboratory) was dissolved in a phosphate buffer (pH 7.4) and left at 37° C. for 4 days. […]
Provide the reported activity at 10 µM of each item.
One number for each entry, in %.

Exercise: What does the record list as activity at 10 µM for CNc1ncc(/C=C/c2nc3ccc(OC(CO)CF)cc3o2)s1 (centres unmarked) [THK-761] ?
Key: 55.2

Exercise: What does the record list as activity at 10 µM for FCCOc1ccc2nc(/C=C/c3cnc(N4CCOCC4)s3)oc2c1 [THK-525] ?
Key: 61.4

Exercise: What does the record list as activity at 10 µM for OCC(CF)Oc1ccc2nc(/C=C/c3cnc(N4CCOCC4)s3)oc2c1 (centres unmarked) [THK-702] ?
Key: 74.9

Exercise: What does the record list as activity at 10 µM for OCC(CF)Oc1ccc2nc(/C=C/c3cnc(N4CCCC4)s3)oc2c1 (centres unmarked) [THK-752] ?
Key: 50.4

Let's switch to this molecule now.
Exercise: What does the record list as activity at 10 µM for CN(C)c1ncc(/C=C/c2nc3ccc(OC(CO)CF)cc3o2)s1 (centres unmarked) [THK-763] ?
Key: 54.7

###

Provide the reported Brain radioactivity of each item.
assayProtocol: Evaluation of Brain-Penetration and Bone-Seeking Properties of the Labeled Compound in Mouse
Format: in vivo
particulars: male ICR mouse, intravenous, 30 min
Numbers only, in % ID/g.

Exercise: What does the record list as Brain radioactivity for CN(C)c1ncc(C=Cc2nc3ccc(OCCF)cc3o2)s1 [[^18F]BF-227, reference compound] ?
Key: 1.91

Exercise: What does the record list as Brain radioactivity for CN(C)c1ncc(/C=C/c2nc3ccc(OC(CO)CF)cc3o2)s1 (stereo not shown) [[^18F]THK-763] ?
Key: 0.53

Exercise: What does the record list as Brain radioactivity for CNc1ncc(/C=C/c2nc3ccc(OC(CO)CF)cc3o2)s1 (stereo not shown) [[^18F]THK-761] ?
Key: 0.22

Further cases:
Exercise: What does the record list as Brain radioactivity for OCC(CF)Oc1ccc2nc(/C=C/c3cnc(N4CCOCC4)s3)oc2c1 (stereo not shown) [[^18F]THK-702] ?
Key: 0.53

###

assayProtocol: Evaluation of Brain-Penetration and Bone-Seeking Properties of the Labeled Compound in Mouse
Assay type: in vivo
particulars: mouse, 2 to 60 minutes after intravenous injection
reportedMetric: Bone-seeking property (bone accumulation)

Exercise: What does the record list as Bone-seeking property (bone accumulation) for OCC(CF)Oc1ccc2nc(/C=C/c3cnc(N4CCOCC4)s3)oc2c1 (stereo not shown) [[^18F]THK-702] ?
Key: have not found

Exercise: What does the record list as Bone-seeking property (bone accumulation) for CNc1ncc(/C=C/c2nc3ccc(OC(CO)CF)cc3o2)s1 (stereo not shown) [[^18F]THK-761] ?
Key: have not found

Exercise: What does the record list as Bone-seeking property (bone accumulation) for CN(C)c1ncc(/C=C/c2nc3ccc(OC(CO)CF)cc3o2)s1 (stereo not shown) [[^18F]THK-763] ?
Key: have not found

###

assayProtocol: Evaluation of Brain-Penetration and Bone-Seeking Properties of the Labeled Compound in Mouse
Type: in vivo
particulars: male ICR mouse, intravenous, 60 min, thighbone
Provide the reported bone radioactivity of each item.
One number for each entry, in % ID/g.

Exercise: What does the record list as bone radioactivity for OCC(CF)Oc1ccc2nc(/C=C/c3cnc(N4CCOCC4)s3)oc2c1 (stereo not shown) [[^18F]THK-702] ?
Key: 1.16

Exercise: What does the record list as bone radioactivity for CN(C)c1ncc(C=Cc2nc3ccc(OCCF)cc3o2)s1 [[^18F]BF-227, reference compound] ?
Key: 7.04

Exercise: What does the record list as bone radioactivity for CN(C)c1ncc(/C=C/c2nc3ccc(OC(CO)CF)cc3o2)s1 (stereo not shown) [[^18F]THK-763] ?
Key: 1.38

Let's switch to this molecule now.
Exercise: What does the record list as bone radioactivity for CNc1ncc(/C=C/c2nc3ccc(OC(CO)CF)cc3o2)s1 (stereo not shown) [[^18F]THK-761] ?
Key: 0.95

###

assayProtocol: Evaluation of Brain-Penetration and Bone-Seeking Properties of the Labeled Compound in Mouse
Format: in vivo
particulars: male ICR mouse, intravenous, 60 min
reportedMetric: blood radioactivity
Record the result as a number with its unit.

Here's what some known entries look like.
Exercise: What does the record list as blood radioactivity for CNc1ncc(/C=C/c2nc3ccc(OC(CO)CF)cc3o2)s1 (stereo not shown) [[^18F]THK-761] ?
Key: 0.34 % ID/g

Exercise: What does the record list as blood radioactivity for CN(C)c1ncc(/C=C/c2nc3ccc(OC(CO)CF)cc3o2)s1 (stereo not shown) [[^18F]THK-763] ?
Key: 0.64 % ID/g

Exercise: What does the record list as blood radioactivity for OCC(CF)Oc1ccc2nc(/C=C/c3cnc(N4CCOCC4)s3)oc2c1 (stereo not shown) [[^18F]THK-702] ?
Key: 0.67 % ID/g

Further cases:
Exercise: What does the record list as blood radioactivity for CN(C)c1ncc(C=Cc2nc3ccc(OCCF)cc3o2)s1 [[^18F]BF-227, reference compound] ?
Key: 2.09 % ID/g

###

assayProtocol: Evaluation of Brain-Penetration and Bone-Seeking Properties of the Labeled Compound in Mouse
Format: in vivo
particulars: male ICR mouse, intravenous, 60 min
reportedMetric: Brain radioactivity (% ID/g)
One number for each entry, in % ID/g.

Here's what some known entries look like.
Exercise: What does the record list as Brain radioactivity for CN(C)c1ncc(C=Cc2nc3ccc(OCCF)cc3o2)s1 [[^18F]BF-227, reference compound] ?
Key: 1.67

Exercise: What does the record list as Brain radioactivity for CNc1ncc(/C=C/c2nc3ccc(OC(CO)CF)cc3o2)s1 (stereo not shown) [[^18F]THK-761] ?
Key: 0.13

Exercise: What does the record list as Brain radioactivity for CN(C)c1ncc(/C=C/c2nc3ccc(OC(CO)CF)cc3o2)s1 (stereo not shown) [[^18F]THK-763] ?
Key: 0.28

Let's switch to this compound now.
Exercise: What does the record list as Brain radioactivity for OCC(CF)Oc1ccc2nc(/C=C/c3cnc(N4CCOCC4)s3)oc2c1 (stereo not shown) [[^18F]THK-702] ?
Key: 0.35

###

assayProtocol: Evaluation of Brain-Penetration and Bone-Seeking Properties of the Labeled Compound in Mouse
Assay type: in vivo
particulars: male ICR mouse, intravenous, 2 min
reportedMetric: blood radioactivity (% ID/g)
Give bare numbers, in % ID/g.

Exercise: What does the record list as blood radioactivity for CNc1ncc(/C=C/c2nc3ccc(OC(CO)CF)cc3o2)s1 (stereo not shown) [[^18F]THK-761] ?
Key: 3.16

Exercise: What does the record list as blood radioactivity for CN(C)c1ncc(C=Cc2nc3ccc(OCCF)cc3o2)s1 [[^18F]BF-227, reference compound] ?
Key: 2.93

Exercise: What does the record list as blood radioactivity for OCC(CF)Oc1ccc2nc(/C=C/c3cnc(N4CCOCC4)s3)oc2c1 (stereo not shown) [[^18F]THK-702] ?
Key: 3.34

Further cases:
Exercise: What does the record list as blood radioactivity for CN(C)c1ncc(/C=C/c2nc3ccc(OC(CO)CF)cc3o2)s1 (stereo not shown) [[^18F]THK-763] ?
Key: 3.65
